system: Leishmania donovani; assay: Leishmania intramacrophage assay; type: functional, organism-based; settings: Leishmania donovani
Recorded measurements of IC50, one per entry
MEASUREMENT TYPE: IC50 (µM)

>>> print(df.to_string())
                                    molecule  prefix_operator  recorded_number
 0        C=C(C)CN1CCC(C(=O)c2cc(F)ccc2F)CC1                >             50.1
 1  COc1cccc(CNCC2CN(C)CCO2)c1 (configuration not stated)                >             50.1
 2  CCN1CC(C(=O)NCc2ccc3c(c2)nc(C)n3C)CCC1=O (configuration not stated)                >             50.1
 3  O=C(NCCCN1CCCCC1)c1ccc(-n2ccc3ccccc32)s1                =             7.13
 4  COc1ccc(-c2cccc3c2OC(CN)C3)cc1F (configuration not stated)                =             22.2
 5        COCCN(Cc1cnn(C)c1)c1nc(C)nc2sccc12                >             50.1
 6       Cc1nc(CCN)cc(N2CCOc3ccc(Cl)cc3C2)n1                =             11.2
 7  Cc1nc2c(c(NCC(O)c3ccccc3Cl)n1)CCNCC2 (configuration not stated)                =             44.8
 8  Cc1nc(N(Cc2ccncc2)CC2CCCO2)c2ccsc2n1 (configuration not stated)                >             50.1
 9       Cc1nc2c(c(NCc3cc4ccccc4s3)n1)CCNCC2                =             5.79
10       Fc1cccc(Nc2nc(N3CCCC3)nc3c2CNCC3)c1                =             3.49
11  COc1ccc(C(NCc2ccc(C#N)cc2)C2CC2)cc1 (configuration not stated)                >             50.1
